molecular target: TAS2R49 human bitter taste receptor (Homo sapiens, UniProt P59543, K79E); construct: first 45 amino acids of rat somatostatin receptor type 3 (SST), membrane-targeting signal (N); vector pcDNA5/FRT; assay: FLIPR calcium assay in HEK-293T Gα16gust44 cells transiently transfected with SST-hTAS2R49-HSV; conditions: averaged dose response curve (n=5), FIG. 1
Sequence (P59543 whole entry K79E): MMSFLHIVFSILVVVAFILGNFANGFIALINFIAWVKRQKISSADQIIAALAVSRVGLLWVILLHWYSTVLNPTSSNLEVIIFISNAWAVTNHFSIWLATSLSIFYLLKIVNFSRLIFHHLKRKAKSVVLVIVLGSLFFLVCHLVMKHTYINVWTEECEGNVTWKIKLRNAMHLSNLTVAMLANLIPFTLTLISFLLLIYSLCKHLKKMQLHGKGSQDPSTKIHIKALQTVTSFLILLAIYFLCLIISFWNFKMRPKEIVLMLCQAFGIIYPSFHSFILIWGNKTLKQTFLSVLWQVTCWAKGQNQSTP

>  <Item Smiles>
O=C(O)c1cc(=O)c2c(OCC(O)COc3cccc4oc(C(=O)O)cc(=O)c34)cccc2o1

>  <Unit Tag>
µM

>  <EC50>
42

$$$$
